# Assay Target: Alpha-2B adrenergic receptor (Homo sapiens)
# Sequence (P18089 whole entry): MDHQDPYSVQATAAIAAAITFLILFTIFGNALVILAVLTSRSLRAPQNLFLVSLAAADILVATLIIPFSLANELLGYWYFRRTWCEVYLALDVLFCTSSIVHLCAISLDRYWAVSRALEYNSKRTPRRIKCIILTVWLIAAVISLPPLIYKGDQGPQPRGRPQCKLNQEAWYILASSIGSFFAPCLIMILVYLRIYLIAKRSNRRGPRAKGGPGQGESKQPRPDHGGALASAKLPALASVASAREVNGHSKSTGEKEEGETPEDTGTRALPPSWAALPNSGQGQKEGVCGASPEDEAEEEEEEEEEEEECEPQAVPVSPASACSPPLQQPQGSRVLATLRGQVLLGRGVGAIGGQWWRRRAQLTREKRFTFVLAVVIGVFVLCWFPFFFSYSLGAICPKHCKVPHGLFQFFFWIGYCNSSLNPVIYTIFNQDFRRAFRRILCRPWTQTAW

- Compound: "OC12CC3CC(CC(C3)N1Cc1ccccc1)C2 (racemic)"
  Ki: "> 10 µM"

###

# Assay Target: Muscarinic acetylcholine receptor M4 (Homo sapiens, UniProt P08173)
# Sequence (P08173 whole entry): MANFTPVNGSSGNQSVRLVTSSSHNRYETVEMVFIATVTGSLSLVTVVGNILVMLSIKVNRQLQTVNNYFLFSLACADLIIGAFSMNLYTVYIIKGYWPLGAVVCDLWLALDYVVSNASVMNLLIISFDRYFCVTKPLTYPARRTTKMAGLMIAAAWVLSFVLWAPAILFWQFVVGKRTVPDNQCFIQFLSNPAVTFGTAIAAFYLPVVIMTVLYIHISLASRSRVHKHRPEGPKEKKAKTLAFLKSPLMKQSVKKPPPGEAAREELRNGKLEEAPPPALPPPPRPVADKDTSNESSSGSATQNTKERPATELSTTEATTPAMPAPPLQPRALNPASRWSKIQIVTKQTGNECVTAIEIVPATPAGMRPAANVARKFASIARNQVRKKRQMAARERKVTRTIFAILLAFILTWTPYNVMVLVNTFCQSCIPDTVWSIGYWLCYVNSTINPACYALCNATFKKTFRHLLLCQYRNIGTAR
Measure: Ki (nM)

- Structure: "Fc1cccc(CN2C3CC4CC(C3)CC2C4)c1"
  Measure: "Ki"
  Observed: 1360
- Structure: "c1ccc(CN2C3CC4CC(C3)CC2C4)cc1"
  Measure: "Ki"
  Observed: 1780
